Reference source: patent US20260109763A1

# Target Entity: T1, human PILRA R78 extracellular domain (recombinant) (human, UniProt Q9UKJ1 20-197)
# T1 construct: also called hPILRA R78
# T1 sequence (Q9UKJ1 20-197 limits assumed): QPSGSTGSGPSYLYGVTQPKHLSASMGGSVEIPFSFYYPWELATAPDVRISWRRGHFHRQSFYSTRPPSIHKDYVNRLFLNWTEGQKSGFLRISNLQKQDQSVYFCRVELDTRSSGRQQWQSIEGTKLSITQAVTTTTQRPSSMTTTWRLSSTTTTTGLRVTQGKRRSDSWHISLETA
# Experiment Notes: SPR
pKd: −log10 of the molar value.
Listing of entries alongside the reported pKd.
Readout Label: pKd

Binder	Test Value
Anti-PILRA antibody clone 12 (antibody, V domains shown, Humanized; also called Ab.12) VH: EVQLVQSGAEVKKPGASVKVSCKASGYTFTEYYMYWVRQAPGQGLELIGRIDPEDGGTDYIEKFKNRVTITADTSTSTAYLELSSLRSEDTAVYYCATTIRGTVFAFWGQGTLVTVSS VL: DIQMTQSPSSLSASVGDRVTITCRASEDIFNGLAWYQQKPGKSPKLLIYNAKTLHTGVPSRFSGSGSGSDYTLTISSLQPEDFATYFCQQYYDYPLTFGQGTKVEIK	7.77
Anti-PILRA antibody clone 23 (antibody, V domains shown, Humanized; also called Ab.23) VH: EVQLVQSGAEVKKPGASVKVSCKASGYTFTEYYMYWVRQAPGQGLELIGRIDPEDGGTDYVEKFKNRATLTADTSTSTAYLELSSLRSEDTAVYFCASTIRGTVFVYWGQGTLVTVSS VL: DIQMTQSPSSLSASVGDRVTITCRPSEDIYNGLAWYQQKPGKAPKLLIYNANSLHTGVPSRFSGSGSGTDYTLTISSLQPEDFATYYCQQYYDYPLTFGQGTKVEIK	7.33
Anti-PILRA antibody clone 15 (antibody, V domains shown, Humanized; also called Ab.15) VH: EVQLVQSGAEVKKPGASVKVSCKASGYTFTEYYMYWVRQAPGQGLELIGRIDPEDGGTDYIEKFKNRSTLTADTSTSTAYLELSSLRSEDTAVYFCATTIRGTVFAFWGQGTLVTVSS VL: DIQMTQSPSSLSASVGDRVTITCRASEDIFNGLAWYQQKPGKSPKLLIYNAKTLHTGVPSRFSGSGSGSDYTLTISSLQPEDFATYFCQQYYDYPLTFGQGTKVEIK	8.00
